- System: Pyricularia oryzae
- experiment_notes: Antifungal activity against Magnaporthe oryzae assessed as inhibition at 0.92 mg/L relative to control
- Type: functional
Consider the following compounds and their measured inhibition at 0.92 µg/mL readings.
Value expressed in %; do not type the unit.

Below, each entry is followed by its recorded inhibition at 0.92 µg/mL result.
[[record]]
record_smiles = "CO/N=C(/C(=O)OC)c1ccccc1COc1c(C)c(-c2cc(C)ccc2C)nn1C"
units = "%"
value_reported = 100

[[record]]
record_smiles = "CNC(=O)/C(=N/OC)c1ccccc1COc1c(C)c(-c2ccc(OCC(F)(F)F)cc2)nn1C"
units = "%"
value_reported = 50

[[record]]
record_smiles = "CO/N=C(/C(=O)OC)c1ccccc1COc1cc(-c2ccc(C)cc2C)nn1C"
units = "%"
value_reported = 0


Request - read-out inhibition at 0.92 µg/mL | tested on Pyricularia oryzae | compound CO/N=C(/C(=O)OC)c1ccccc1COc1c(C)c(-c2ccc(OC)cc2)nn1C
80

* * *

- Tested on: Pyricularia oryzae
- experiment_notes: Antifungal activity against Magnaporthe oryzae assessed as inhibition at 25 mg/L relative to control
- Type: functional
Consider the following molecules and their measured inhibition at 25 µg/mL readings.
Value expressed in %; do not type the unit.

Below, each entry is followed by its recorded inhibition at 25 µg/mL result.
[[record]]
record_smiles = "CO/N=C(/C(=O)OC)c1ccccc1COc1cc(-c2ccccc2)nn1C"
experimental_target = "Pyricularia oryzae"
quantity_measured = "inhibition at 25 µg/mL"
value_reported = 0

[[record]]
record_smiles = "CO/C=C(/C(=O)OC)c1ccccc1Oc1cc(Oc2ccccc2C#N)ncn1"
experimental_target = "Pyricularia oryzae"
quantity_measured = "inhibition at 25 µg/mL"
value_reported = 100


Tell me the measured inhibition at 25 µg/mL of CNC(=O)/C(=N/OC)c1ccccc1COc1c(C)c(-c2ccc(OCC(F)(F)F)cc2)nn1C , please.
80

Field entry: CO/N=C(/C(=O)OC)c1ccccc1COc1cc(-c2ccc(C)c(C)c2)nn1C
100

Field entry: CO/N=C(/C(=O)OC)c1ccccc1COc1c(C)c(-c2ccc(OC)cc2)nn1C
100
